target system: zfERβ2 (Esr2a) (Danio rerio, UniProt Q7ZU32)
Sequence (Q7ZU32 1-553): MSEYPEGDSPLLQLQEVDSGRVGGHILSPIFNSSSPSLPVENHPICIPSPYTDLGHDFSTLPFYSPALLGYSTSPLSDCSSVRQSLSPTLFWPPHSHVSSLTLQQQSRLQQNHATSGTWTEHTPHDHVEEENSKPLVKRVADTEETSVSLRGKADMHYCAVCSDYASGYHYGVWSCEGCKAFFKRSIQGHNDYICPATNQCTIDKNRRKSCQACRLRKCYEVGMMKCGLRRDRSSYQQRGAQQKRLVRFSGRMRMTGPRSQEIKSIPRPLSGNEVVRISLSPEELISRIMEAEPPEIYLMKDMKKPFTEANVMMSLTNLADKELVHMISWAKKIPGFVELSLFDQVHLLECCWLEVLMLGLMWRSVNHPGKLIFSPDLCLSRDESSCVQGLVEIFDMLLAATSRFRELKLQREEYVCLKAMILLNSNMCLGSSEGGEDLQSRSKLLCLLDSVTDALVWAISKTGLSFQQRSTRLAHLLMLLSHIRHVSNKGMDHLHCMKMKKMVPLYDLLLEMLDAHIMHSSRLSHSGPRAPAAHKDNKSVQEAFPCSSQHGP
test protocol: ERE-luciferase transactivation, HELN-zfER cells
Type: cell-based
readout: EC50 (nM)

item_smiles=CC(C)(c1ccc(O)cc1)c1ccc(O)cc1 unit_label=nM result_value=2800
item_smiles=C[C@]12CC[C@@H]3c4ccc(O)cc4CC[C@H]3[C@@H]1C[C@H]1OC(=O)C[C@]12O unit_label=nM result_value=69.5

====

target system: zfERβ1 (Esr2b) (Danio rerio)
Sequence (Q5PR29 1-592): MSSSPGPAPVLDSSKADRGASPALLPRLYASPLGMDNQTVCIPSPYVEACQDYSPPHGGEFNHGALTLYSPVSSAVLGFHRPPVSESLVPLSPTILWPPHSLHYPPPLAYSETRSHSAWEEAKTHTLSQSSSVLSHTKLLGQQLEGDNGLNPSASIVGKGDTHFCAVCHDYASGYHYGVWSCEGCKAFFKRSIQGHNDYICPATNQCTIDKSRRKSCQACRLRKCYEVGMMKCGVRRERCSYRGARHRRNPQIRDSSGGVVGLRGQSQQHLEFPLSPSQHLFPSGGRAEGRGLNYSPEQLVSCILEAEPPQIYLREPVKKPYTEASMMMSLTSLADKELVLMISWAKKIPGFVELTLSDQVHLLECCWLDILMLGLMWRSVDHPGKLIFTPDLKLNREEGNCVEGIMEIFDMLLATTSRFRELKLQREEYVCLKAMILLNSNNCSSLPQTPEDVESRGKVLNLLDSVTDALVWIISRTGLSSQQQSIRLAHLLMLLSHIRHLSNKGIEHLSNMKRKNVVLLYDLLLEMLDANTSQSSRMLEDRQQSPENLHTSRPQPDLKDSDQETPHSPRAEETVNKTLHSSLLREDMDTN
test protocol: ERE-luciferase transactivation, HELN-zfER cells
Assay type: cell-based
Catalogue of EC50 readings, one per entry.
readout: EC50 (nM)

item_smiles=C[C@]12CC[C@@H]3c4ccc(O)cc4CC[C@H]3[C@@H]1C[C@H]1OC(=O)C[C@]12O readout=EC50 result_value=271
item_smiles=CC(C)(c1ccc(O)cc1)c1ccc(O)cc1 readout=EC50 result_value=3330

Origin of the recorded values: paper PMC6748385
